Test system: SK-OV-3 ovarian
PROTOCOL_DETAILS: NCI tumour cell line growth inhibition, 48 h; in the data active = GI50 below about 0.43 µM; inactive = the rest
# valid calls are active, inactive; nothing else

These recorded examples may help you get a feel for the data.
**Query** Tell me the assay call for `Nc1ccn(Cc2ccc(C34CC5CC(CC(C5)C3)C4)c(O)c2)c(=O)n1` please.
**Result** inactive

**Query** Hi, do you know how `O=C([O-])c1ccccc1Nc1ccccn1.O=C([O-])c1ccccc1Nc1ccccn1.[Ni+2]` came out in this test?
**Result** inactive

**Query** Record lookup: outcome of this test for `COC(=O)[C@]12CC[C@@H](C)[C@H](C)[C@@H]1C1=CC[C@@H]3[C@@]4(C)C[C@@H](OC(C)=O)[C@H](O)[C@@](C)(COC(C)=O)[C@@H]4[C@H](O)C[C@@]3(C)[C@]1(C)CC2` ?
**Result** inactive

**Query** Each compound tested received a call. Report the one for `Cc1sc(C(=O)Nc2cc(C(=O)NCCCN(C)C)n(C)c2)cc1NC(=O)CCCN1C(=O)c2cccc3cccc(c23)C1=O` .
**Result** inactive

**Query** # outcome recorded in this test, key = `ClCCn1c(CCl)nc2ccc(Cl)cc21`
**Result** active

**Query** Recorded test call requested for `CN1CCN(CCc2cccc(C(=O)c3cnn(-c4ccc(F)cc4)c3N)c2)CC1`
**Result** inactive

***
**Query** Recorded test outcome, item `C=C1C(=O)O[C@H]2[C@H]1CC/C(COC(=O)NCc1ccccc1OC)=C\CC[C@@]1(C)O[C@@H]21`
**Result** inactive

**Query** # lookup: test call for COC1(C(=O)N[C@@H](C)c2ccc(-n3cc(F)cn3)nc2)CCC(c2nc(C)cc(Nc3cc(C)[nH]n3)n2)CC1 (stereo not given in full)
**Result** inactive

**Query** Test call, this compound: `CCN(CC)S(=O)(=O)c1ccc(OC)c(Nc2ncc(-c3ccccc3)o2)c1`
**Result** inactive

**Query** Which outcome was entered for the compound CCCCCn1c(=N)n(CC(O)COc2cccc(C)c2)c2ccccc21 (stereo not given) in this test?
**Result** inactive
